All figures here come from ChEMBL document CHEMBL4007427.

# Target Of Assay: Aldehyde dehydrogenase 1A1 (Homo sapiens)
# Protocol Notes: Inhibition of full length recombinant human ALDH1A1 expressed in Escherichia coli BL21(DE3) assessed as remaining dehydrogenase activity by measuring NAD(P)H level at 10 uM preincubated for 2 mins followed by addition of propionaldehyde as substrate in presence of NAD+ by spectrophotometric method
For each record, write down the corresponding Activity.
Remember to put the unit after the number in your answer.

Data request: Which Activity value is on record for "Cc1cc(=O)oc2cc(OCC(N)=O)ccc12" ?
Data returned: 28.5%

Data request: Which Activity value is on record for "Cc1oc2c(C)c3oc(=O)c(C)c(C)c3cc2c1C" ?
Data returned: 78.4%

Data request: Which Activity value is on record for "Cc1coc2cc3oc(=O)c(Cc4ccccc4)c(C)c3cc12" ?
Data returned: 58.5%

Data request: Which Activity value is on record for "Cc1c(C)c2cc3c(=O)ccoc3c(C)c2oc1=O" ?
Data returned: 67.4%

Data request: Which Activity value is on record for "Cc1oc2cc3oc(=O)c4c(c3cc2c1C)CCC4" ?
Data returned: 50.8%

Data request: Which Activity value is on record for "CC(C)=CCOc1ccc2c(C)cc(=O)oc2c1" ?
Data returned: 37.3%

Data request: Which Activity value is on record for "Cc1c(C)c2cc3c(-c4ccccc4)coc3cc2oc1=O" ?
Data returned: 87.4%

Data request: Which Activity value is on record for "Cc1oc2cc3oc(=O)c(CCC(=O)NCc4ccccc4)c(C)c3cc2c1C" ?
Data returned: 93.6%

Data request: Which Activity value is on record for "C=CCOc1ccc2c(C)cc(=O)oc2c1" ?
Data returned: 35.5%

Data request: Which Activity value is on record for COC(=O)C(C)Oc1ccc2c(C)cc(=O)oc2c1 (stereo unspecified) ?
Data returned: 84.8%

Data request: Which Activity value is on record for Cc1cc(=O)oc2cc(OC(C)C(=O)O)ccc12 (stereo unspecified) ?
Data returned: 97.5%

Data request: Which Activity value is on record for "Cc1oc2cc3oc(=O)c4ccccc4c3cc2c1C" ?
Data returned: 82.4%

Data request: Which Activity value is on record for "Cc1c(C)c2cc3c(C(C)(C)C)coc3cc2oc1=O" ?
Data returned: 94.5%

Data request: Which Activity value is on record for "Cc1cc2oc(=O)cc(C)c2cc1NC(=O)C(C)C" ?
Data returned: 59.8%

Data request: Which Activity value is on record for "CCCc1cc(=O)oc2cc3oc(C)c(C)c3cc12" ?
Data returned: 74.1%

Data request: Which Activity value is on record for "Cc1oc2cc3oc(=O)cc(Cc4ccccc4)c3cc2c1C" ?
Data returned: 57%

Data request: Which Activity value is on record for CC(=O)C(C)Oc1ccc2c(C)cc(=O)oc2c1 (stereo unspecified) ?
Data returned: 68.7%

Data request: Which Activity value is on record for "CCN(CC)c1ccc2c(C)cc(=O)oc2c1" ?
Data returned: 14.3%

Data request: Which Activity value is on record for "Cc1oc2cc3oc(=O)c(CCC(=O)N4CCCCC4)c(C)c3cc2c1C" ?
Data returned: 8.69%

Data request: Which Activity value is on record for "C/C(=N\O)c1cc2cc(Br)ccc2oc1=O" ?
Data returned: 96%

Data request: Which Activity value is on record for "Cc1c(CCC(=O)O)c(=O)oc2cc(O)ccc12" ?
Data returned: 96.6%

Data request: Which Activity value is on record for "Cc1cc(=O)oc2cc(OCC(=O)c3ccccc3)ccc12" ?
Data returned: 29%

Data request: Which Activity value is on record for "Cc1oc2cc3oc(=O)c(C)c(C)c3cc2c1C" ?
Data returned: 90.5%

Data request: Which Activity value is on record for "CC(=O)COc1ccc2c(C)cc(=O)oc2c1" ?
Data returned: 52.2%

Data request: Which Activity value is on record for "Cc1cc(=O)oc2cc3c(cc12)CCC(=O)O3" ?
Data returned: 65.2%

Data request: Which Activity value is on record for CC(=O)C(C)Oc1ccc2c(c1)oc(=O)c1ccccc12 (stereo unspecified) ?
Data returned: 58.7%

Data request: Which Activity value is on record for "Cc1c(C)c2cc3c4c(oc3cc2oc1=O)CCCC4" ?
Data returned: 64.3%

Data request: Which Activity value is on record for "Cc1cc(=O)oc2cc(OCC(=O)Nc3ccccc3)ccc12" ?
Data returned: 49.6%

Data request: Which Activity value is on record for "Cc1c(C)c2c(cc(C)c3c(C)coc32)oc1=O" ?
Data returned: 71.5%

Data request: Which Activity value is on record for CC(=O)C(C)Oc1ccc2ccc(=O)oc2c1 (stereo unspecified) ?
Data returned: 91.4%

Data request: Which Activity value is on record for "Cc1cc(=O)oc2cc(OCC#N)ccc12" ?
Data returned: 35.7%

Data request: Which Activity value is on record for "CCCc1c(C)c2cc3c(C)coc3cc2oc1=O" ?
Data returned: 48.6%

Data request: Which Activity value is on record for COc1ccc2c(C)cc(=O)oc2c1 [HYMECROMONE METHYL ETHER] ?
Data returned: 80.2%

Data request: Which Activity value is on record for "Cc1c(Cc2ccccc2)c(=O)oc2cc(OS(C)(=O)=O)ccc12" ?
Data returned: 24.6%

Data request: Which Activity value is on record for "Cc1oc2cc3oc(=O)c4c(c3cc2c1C)CCCC4" ?
Data returned: 56.3%

Data request: Which Activity value is on record for "CCCc1c(C)c2cc3c(C)c(C)oc3cc2oc1=O" ?
Data returned: 36.3%
